Would you mind telling me the reported pIC50 of each entry?
- target: human aromatase (Homo sapiens, UniProt P11511)
- Construct: The enzyme preparation was used without further purification; from tissue; host or cells: human placenta, microsomal fraction (100000×g precipitate)
- Sequence (P11511 whole entry): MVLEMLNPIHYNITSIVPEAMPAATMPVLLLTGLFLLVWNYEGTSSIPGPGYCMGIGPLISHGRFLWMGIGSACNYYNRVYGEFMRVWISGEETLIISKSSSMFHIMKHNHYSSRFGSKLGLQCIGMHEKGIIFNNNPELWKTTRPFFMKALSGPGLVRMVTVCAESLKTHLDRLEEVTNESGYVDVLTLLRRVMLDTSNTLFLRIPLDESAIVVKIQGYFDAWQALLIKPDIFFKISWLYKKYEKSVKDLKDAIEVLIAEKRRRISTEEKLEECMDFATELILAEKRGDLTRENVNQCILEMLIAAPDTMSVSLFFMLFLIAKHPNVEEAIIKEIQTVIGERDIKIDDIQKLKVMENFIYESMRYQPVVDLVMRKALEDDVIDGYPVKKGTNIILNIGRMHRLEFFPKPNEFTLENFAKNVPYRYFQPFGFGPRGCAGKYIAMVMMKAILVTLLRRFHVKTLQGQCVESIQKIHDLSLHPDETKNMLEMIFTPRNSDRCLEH
- test.protocol: In vitro inhibition of human placental aromatase (3H2O release from 1,2[3H]-androstene-3,17-dione)
- Assay type: biochemical
- assay.context: read-out: AROMATASE IC-50
Field pIC50 (float): negative decimal logarithm of the concentration in molar.

Data request, read-out pIC50, for OC(CCc1c[nH]cn1)(c1ccc(Cl)cc1)c1ccc(Cl)cc1 [Compound 2]
4.22

Name the recorded pIC50 for COc1cccc(C(CCc2c[nH]cn2)c2cccc(OC)c2)c1 [Compound 13] .
5.52

Can you share its pIC50? I mean this compound: Cc1cccc(C)c1CCC(O)(CCc1c[nH]cn1)CCc1c(C)cccc1C [Compound 1]
3.00

Give its pIC50 value. Item: COc1cccc(C(CCc2cncn2Cc2ccccc2)c2cccc(OC)c2)c1 [Compound 15]
5.40

I am curious: what pIC50 value has been reported for COc1ccccc1C(CCc1c[nH]cn1)c1ccccc1OC [Compound 25] ?
5.07
